These data points were gathered from ChEMBL document CHEMBL3632470.

- System: Plasmodium falciparum
- Assay overview: Antimalarial activity against chloroquine-resistant Plasmodium falciparum K1 by microculture radioisotope technique
- Type: functional, organism-based
pIC50: −log10 of the molar value.
Lab note: compare pIC50 against 5. Equal or greater, write YES. Smaller, write NO.

# count of solved cases: 3
# Compound, Tgt, Group label
data = [
    ("CCO[C@@]12C[C@H]3[C@@H](CCC4[C@](C)(C(=O)OC)CCC[C@@]43C(=O)O)[C@@H](C)C1=CC(=O)O2 (some centres not stated)", "Plasmodium falciparum", "NO"),
    ("CCO[C@@H]1OC(OC)C2(C(=O)OC)CCCC13[C@H]1C[C@@]4(OCC)OC(=O)C=C4[C@H](C)[C@@H]1CC[C@@H]23 (some centres not stated)", "Plasmodium falciparum", "NO"),
    ("COC(=O)C12CCCC3([C@H](O)OC1)[C@H]1C[C@@]4(O)OC(=O)C=C4[C@H](C)[C@@H]1CC[C@@H]23 (some centres not stated)", "Plasmodium falciparum", "YES"),
]

Exam item: Kindly determine if pIC50 recorded for CCO[C@@]12C[C@H]3[C@@H](CC[C@H]4C5(C(=O)OC)CCCC34C(OC)OC5)[C@@H](C)C1=CC(=O)O2 (some centres not stated) is above or exactly 5.
Marked response: NO

Exam item: Kindly determine if pIC50 recorded for CCO[C@@]12C[C@H]3[C@@H](CC[C@H]4C5(C(=O)OC)CCCC34C(OC)O[C@@H]5OC)[C@@H](C)C1=CC(=O)O2 (some centres not stated) is above or exactly 5.
Marked response: NO

Exam item: Kindly determine if pIC50 recorded for COC(=O)C12CCCC3(C(OC)OC1O)[C@H]1C[C@@]4(O)OC(=O)C=C4[C@H](C)[C@@H]1CC[C@@H]23 (some centres not stated) is above or exactly 5.
Marked response: YES

---

- Test system: Plasmodium falciparum
- Assay overview: Antimalarial activity against chloroquine-resistant Plasmodium falciparum K1 by microculture radioisotope technique
- Assay type: functional, organism-based
pIC50: −log10 of the molar value.
Lab note: compare pIC50 against 5. Equal or greater, write y. Smaller, write n.

# count of solved cases: 4
# Molecule, Group label
measured = [
    ("COC(=O)[C@]1(C)CCC[C@@]2(CO)C1CC[C@H]1[C@@H](C)C3=CC(=O)O[C@]3(O)C[C@@H]12 (stereo not given in full)", "y"),
    ("CCO[C@@]12C[C@H]3[C@@H](CCC4C(C(=O)OC)(C(=O)OC)CCC[C@@]43C=O)[C@@H](C)C1=CC(=O)O2 (stereo not given in full)", "n"),
    ("CCO[C@H]1OC(OC)C23CCCC1(C(=O)OC)[C@@H]2CC[C@H]1[C@@H](C)C2=CC(=O)O[C@]2(OCC)C[C@@H]13 (stereo not given in full)", "n"),
    ("CCO[C@@]12C[C@H]3[C@@H](CCC4[C@](C)(C(=O)OC)CCC[C@@]43C=O)[C@@H](C)C1=CC(=O)O2 (stereo not given in full)", "n"),
]

Continue with the molecule presented below.
Exam item: Kindly determine if pIC50 recorded for CCOC1OCC2(C(=O)OC)CCCC13[C@H]1C[C@@]4(OC)OC(=O)C=C4[C@H](C)[C@@H]1CC[C@@H]23 (stereo not given in full) is above or exactly 5.
Marked response: n
